Tested on: CV-1
Assay: Inhibition of gamma-secretase expressed in african green monkey CV1 cells coexpressing Gal4 DNA-binding/transactivation domain assessed as inhibition of notch processing by luciferase reporter assay at 20 uM
Type: cell-based
Assign class by inhibition: not lower than 20% means y; lower than 20% means n.

- smiles-input: "CC(C)CC[C@H](c1ccc(C2CC2)nc1)N1CC[C@@H](CC(=O)[O-])C[C@H]1c1ccc(C(F)(F)F)cc1.[Na+]"
  assigned-class: "n"
- smiles-input: "O=C([O-])C[C@@H]1CCN([C@H](CC2CCC2)c2ccc(C(F)(F)F)nc2)[C@H](c2ccc(C(F)(F)F)cc2)C1.[Na+]"
  assigned-class: "n"
- smiles-input: "O=C([O-])C[C@@H]1CCN([C@@H](c2ccc(C(F)(F)F)nc2)C2CC2)[C@H](c2ccc(C(F)(F)F)cc2)C1.[Na+]"
  assigned-class: "y"
- smiles-input: "CC(C)CC[C@H](c1ccc(C(F)(F)F)nn1)N1CC[C@@H](CC(=O)[O-])C[C@H]1c1ccc(C(F)(F)F)cc1.[Na+]"
  assigned-class: "n"
- smiles-input: "CCCC[C@H](c1ccc(C(F)(F)F)nc1)N1CC[C@@H](CC(=O)[O-])C[C@H]1c1ccc(C(F)(F)F)cc1.[Na+]"
  assigned-class: "y"
- smiles-input: "CC(C)C[C@H](c1ccc(C(F)(F)F)nc1)N1CC[C@@H](CC(=O)[O-])C[C@H]1c1ccc(C(F)(F)F)cc1.[Na+]"
  assigned-class: "y"
